- target_desc: T1, human programmed death 1 (hPD-1), extracellular region (amino acids 34-150) (human, UniProt Q15116 34-150)
- T1 construct: extracellular region of human PD-1, amino acids 34-150, cloned into pET28a between NcoI and NdeI sites; purification was by cation exchange and gel filtration; also called CD279
- assay_remarks: SPR; Biacore T200; hPD-1 immobilised on a CM5 chip by amine coupling (5000 RU); peptides or hPD-L1 injected 90 s, dissociation 120 s; PBS-P buffer pH 7.4, 25°C, 30 μl/min; steady-state model
- measurement_context: both partners purified
readout_type: pKd
pKd is a log-scale quantity: -log10 of the concentration expressed in molar.

Item: FNWDYSWKSERLKEAYDL (de novo designed peptide with anchor residues Y56, R113, A121, D122 and Y123 of hPD-L1; source: synthetic peptide (Fmoc solid-phase synthesis)) [Ar5Y_1] | pKd: 5.47

Item: FNWDYSLEELREKAKYK (de novo designed peptide with anchor residues Y56, R113, A121, D122 and Y123 of hPD-L1; source: synthetic peptide (Fmoc solid-phase synthesis)) [Ar5Y_2] | pKd: 5.50

Item: GNWDYNSQRAQLYNQ (de novo designed peptide with anchor residues Y56, R113, A121, D122 and Y123 of hPD-L1; source: synthetic peptide (Fmoc solid-phase synthesis)) [Ar5Y_4] | pKd: 5.86

Item: TEKDYRHGNIRMKLAYDL (de novo designed peptide with anchor residues Y56, R113, A121, D122 and Y123 of hPD-L1; source: synthetic peptide (Fmoc solid-phase synthesis)) [Ar5Y_3] | pKd: 5.50

Data provenance: paper PMC5323130
